Measured BPI (Brain Penetration Index) of individual entries
Tested on: mouse
Conditions: mouse, in vivo, iv
Where a SMILES comes first, the peptide text is derived from it. [ ]: non-standard residue; d: D form. The star is where a group is joined. NH(4-picolyl) = c1cc(CN*)ccn1; dNle = CCCC[C@@H](N)C(=O)O; Morpholide = C1CN(*)CCO1; NEt2 = CCN(CC)*; NHcPr = C1CC1N*; NHPr = CCCN*
// no unit, no text: just the number

compound: CCCC[C@@H](NC(=O)[C@@H](Cc1ccccc1)NC(=O)[C@H](N)Cc1ccccc1)C(=O)N[C@H](CCCNC(=N)N)C(=O)N1CCOCC1 [Peptide 6, H-D-Phe-D-Phe-D-Nle-D-Arg-Mor] (H-[dF][dF][dNle][dR]-Morpholide)
target-under-test: mouse
value-type: BPI (Brain Penetration Index)
readout-number: 457
--
compound: CCCC[C@@H](NC(=O)[C@@H](Cc1ccccc1)NC(=O)[C@H](N)Cc1ccccc1)C(=O)N[C@H](CCCNC(=N)N)C(=O)NCC [Peptide 1, H-D-Phe-D-Phe-D-Nle-D-Arg-NHEt] (H-[dF][dF][dNle][dR]-NHEt)
target-under-test: mouse
value-type: BPI (Brain Penetration Index)
readout-number: 108
--
compound: CCCC[C@@H](NC(=O)[C@@H](Cc1ccccc1)NC(=O)[C@H](N)Cc1ccccc1)C(=O)N[C@H](CCCNC(=N)N)C(=O)NCCC [Peptide 3, H-D-Phe-D-Phe-D-Nle-D-Arg-NHPr] (H-[dF][dF][dNle][dR]-NHPr)
target-under-test: mouse
value-type: BPI (Brain Penetration Index)
readout-number: 177
--
compound: CCCC[C@@H](NC(=O)[C@@H](Cc1ccccc1)NC(=O)[C@H](N)Cc1ccccc1)C(=O)N[C@H](CCCNC(=N)N)C(=O)NC1CC1 [Peptide 5, H-D-Phe-D-Phe-D-Nle-D-Arg-NH(Cyp)] (H-[dF][dF][dNle][dR]-NHcPr)
target-under-test: mouse
value-type: BPI (Brain Penetration Index)
readout-number: 110
--
compound: CCCC[C@@H](NC(=O)[C@@H](Cc1ccccc1)NC(=O)[C@H](N)Cc1ccccc1)C(=O)N[C@H](CCCNC(=N)N)C(=O)NCc1ccncc1 [Peptide 8, H-D-Phe-D-Phe-D-Nle-D-Arg-NH(4-Pic)] (H-[dF][dF][dNle][dR]-{NH(4-picolyl)})
target-under-test: mouse
value-type: BPI (Brain Penetration Index)
readout-number: 984
--
compound: CC(C)C[C@@H](NC(=O)[C@@H](Cc1ccccc1)NC(=O)[C@H](N)Cc1ccccc1)C(=O)N[C@H](CCCN)C(=O)N1CCOCC1 [Peptide 57, H-D-Phe-D-Phe-D-Leu-D-Onn-Mor]
target-under-test: mouse
value-type: BPI (Brain Penetration Index)
readout-number: 215

Next item in the queue.
Challenge: Name the recorded BPI (Brain Penetration Index) for CCCC[C@@H](NC(=O)[C@@H](Cc1ccccc1)NC(=O)[C@H](N)Cc1ccccc1)C(=O)N[C@H](CCCNC(=N)N)C(=O)N(CC)CC [Peptide 7, H-D-Phe-D-Phe-D-Nle-D-Arg-N(Et2)] (H-[dF][dF][dNle][dR]-NEt2) .
Response given: 155

====

Here we list compounds with their recorded pKi when tested on UniProt P41145.
Sequence (P41145 whole entry): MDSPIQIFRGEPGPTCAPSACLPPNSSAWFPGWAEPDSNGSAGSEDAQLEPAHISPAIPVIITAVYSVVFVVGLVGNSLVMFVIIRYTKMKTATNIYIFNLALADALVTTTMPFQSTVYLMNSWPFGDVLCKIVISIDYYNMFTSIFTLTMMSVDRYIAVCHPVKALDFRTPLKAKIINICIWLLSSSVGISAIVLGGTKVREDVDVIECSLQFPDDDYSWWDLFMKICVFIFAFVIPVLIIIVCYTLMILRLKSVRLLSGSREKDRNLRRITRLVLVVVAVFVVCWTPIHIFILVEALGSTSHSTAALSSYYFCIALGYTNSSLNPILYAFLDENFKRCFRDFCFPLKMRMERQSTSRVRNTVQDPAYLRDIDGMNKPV
Where a SMILES comes first, the peptide text is derived from it. [ ]: non-standard residue; d: D form. The star is where a group is joined. dPhe(3,4-Cl2) = N[C@H](Cc1ccc(Cl)c(Cl)c1)C(=O)O; dPhe(4-CH2NH2) = NCc1ccc(C[C@@H](N)C(=O)O)cc1; dPhe(4-F) = N[C@H](Cc1ccc(F)cc1)C(=O)O; d2Nal = N[C@H](Cc1ccc2ccccc2c1)C(=O)O; d2Thi = N[C@H](Cc1cccs1)C(=O)O; NH(4-picolyl) = c1cc(CN*)ccn1; dNle = CCCC[C@@H](N)C(=O)O; Morpholide = C1CN(*)CCO1; Piperidide = C1CCN(*)CC1; NHcPr = C1CC1N*; NHBu = CCCCN*
Bear in mind: pKi is minus log10 of a mol/L concentration; give just that figure.

For orientation, consider the following solved cases.
compound: CCCC[C@@H](NC(=O)[C@@H](Cc1ccccc1)NC(=O)[C@H](N)Cc1ccccc1)C(=O)N[C@H](CCCNC(=N)N)C(=O)NCc1ccncc1 [Peptide 8, H-D-Phe-D-Phe-D-Nle-D-Arg-NH(4-Pic)] (H-[dF][dF][dNle][dR]-{NH(4-picolyl)})
pKi: 9.85

compound: CCCC[C@@H](NC(=O)[C@@H](Cc1ccccc1)NC(=O)[C@H](N)Cc1ccccc1)C(=O)N[C@H](CCCNC(=N)N)C(=O)NC1CC1 [Peptide 5, H-D-Phe-D-Phe-D-Nle-D-Arg-NH(Cyp)] (H-[dF][dF][dNle][dR]-NHcPr)
pKi: 9.74

compound: CCCC[C@@H](NC(=O)[C@@H](Cc1ccccc1)NC(=O)[C@H](N)Cc1ccccc1)C(=O)N[C@H](CCCNC(=N)N)C(=O)N1CCCCC1 [Peptide 12, H-D-Phe-D-Phe-D-Nle-D-Arg-Pip] (H-[dF][dF][dNle][dR]-Piperidide)
pKi: 9.82

compound: CC(C)C[C@@H](NC(=O)[C@@H](Cc1ccc(Cl)c(Cl)c1)NC(=O)[C@H](N)Cc1cccs1)C(=O)N[C@H](CCCNC(=N)N)C(=O)N1CCOCC1 [Peptide 61, H-D-Ala(2Thi)-D-3,4Cpa-D-Leu-D-Arg-Mor] (H-[d2Thi][dPhe(3,4-Cl2)][dL][dR]-Morpholide)
pKi: 9.82

compound: CC(C)C[C@@H](NC(=O)[C@@H](Cc1ccc2ccccc2c1)NC(=O)[C@H](N)Cc1ccc(F)cc1)C(=O)N[C@H](CCCNC(=N)N)C(=O)N1CCOCC1 [Peptide 62, H-D-4Fpa-D-2Nal-D-Leu-D-Arg-Mor] (H-[dPhe(4-F)][d2Nal][dL][dR]-Morpholide)
pKi: 9.48

compound: CCCC[C@@H](NC(=O)[C@@H](Cc1ccccc1)NC(=O)[C@H](N)Cc1ccccc1)C(=O)N[C@H](Cc1ccc(CN)cc1)C(=O)NCC [Peptide 55, H-D-Phe-D-Phe-D-Nle-D-Amf-NHEt] (H-[dF][dF][dNle][dPhe(4-CH2NH2)]-NHEt)
pKi: 9.85

compound: CC(C)C[C@@H](NC(=O)[C@@H](Cc1ccc(Cl)c(Cl)c1)NC(=O)[C@H](N)Cc1cccs1)C(=O)N[C@H](CCCNC(=N)N)C(=O)NCc1ccncc1 [Peptide 60] (H-[d2Thi][dPhe(3,4-Cl2)][dL][dR]-{NH(4-picolyl)})
pKi: 9.40

With those in mind, consider the next compound.
Challenge: Find the recorded pKi belonging to CCCCNC(=O)[C@@H](CCCNC(=N)N)NC(=O)[C@@H](CCCC)NC(=O)[C@@H](Cc1ccccc1)NC(=O)[C@H](N)Cc1ccccc1 [Peptide 4, H-D-Phe-D-Phe-D-Nle-D-Arg-NHBu] (H-[dF][dF][dNle][dR]-NHBu) and report it.
Response given: 9.72
